tested on: PBMC from FIV-vaccinated cats; assay: Feline IL2 ELISpot of PBMC from vaccinated cats; assay type: cell-based, cat; settings: FIV peptides
result_type: IL2, frequency of responders

{"sequence_data": "KKKSGKWRLIDFRVLNKL [FRT3-3/4]", "IL2, frequency of responders": "++++ (>54% (++++))"}
{"sequence_data": "AEVKLYLKQSLSIANA [Fp14-3/4, overlapping peptide of MAP3]", "IL2, frequency of responders": "++++ (>54% (++++))"}
{"sequence_data": "GSSKEIDMAIVTLKV [FMA2]", "IL2, frequency of responders": "++ (25.1%-40% (++))"}
{"sequence_data": "KKKSGKWRMLIDFRV [FRT3-3]", "IL2, frequency of responders": "++ (25.1%-40% (++))"}
{"sequence_data": "GRRYVWCSLPQGWVLSPLIY [FRT7-1/2, overlapping peptide of MAP5]", "IL2, frequency of responders": "+++ (40.1%-54% (+++))"}
{"sequence_data": "KFLLDTGADITILN [FPR2]", "IL2, frequency of responders": "++++ (>54% (++++))"}

Consider the additional sequence presented here.
Query :: Can you look up the measured IL2, frequency of responders of RAWYLEALGKLAAIKAK [Fp10-2/3, overlapping peptide of MAP6] for me?
Result :: +++ (40.1%-54% (+++))

---

tested on: CD8^+ T cells from HIV^+ subjects; assay: FACS-based intracellular staining (ICS) for cytolysin (perforin) and cytotoxins (GrzA, GrzB) in CD8+ T cells; details: HIV-1 epitope peptide; HIV+ human subjects; threshold ≥0.2%
Residues, ends and D or L forms follow the SMILES beside them.
result_type: CyCD8: CD8+ T-cell cytolysin/cytotoxins (perforin, GrzA & B), frequency of responders

{"compound": "CC(C)[C@H](NC(=O)CNC(=O)[C@H](CO)NC(=O)[C@H](CCCNC(=N)N)NC(=O)[C@H](Cc1ccccc1)NC(=O)[C@H](CO)NC(=O)[C@H](CCC(=O)O)NC(=O)[C@H](CCC(=O)O)NC(=O)[C@@H]1CCCN1C(=O)[C@@H]1CCCN1C(=O)[C@H](C)NC(=O)[C@@H](N)[C@@H](C)O)C(=O)N[C@@H](CCC(=O)O)C(=O)N[C@H](C(=O)N[C@H](C(=O)N[C@H](C(=O)O)[C@@H](C)O)[C@@H](C)O)[C@@H](C)O [HNC2] (H-TAPPEESFRSGVETTT-OH; N-terminus and C-terminus assumed)", "val": "+ (12.5%-25% (+))"}
{"compound": "CC[C@H](C)[C@H](NC(=O)[C@H](CCCNC(=N)N)NC(=O)[C@@H](N)CC(C)C)C(=O)N[C@H](C(=O)N[C@@H](Cc1ccccc1)C(=O)N[C@@H](C)C(=O)N[C@H](C(=O)N[C@@H](CC(C)C)C(=O)N[C@@H](CO)C(=O)N[C@H](C(=O)N[C@H](C(=O)N[C@@H](CC(N)=O)C(=O)N[C@@H](CCCNC(=N)N)C(=O)N[C@H](C(=O)N[C@@H](CCCNC(=N)N)C(=O)N[C@@H](CCC(N)=O)C(=O)O)C(C)C)C(C)C)[C@@H](C)CC)C(C)C)C(C)C [HTM8(20)] (H-LRIVFAVLSIVNRVRQ-OH; N-terminus and C-terminus assumed)", "val": "− (0%-1.4% (−))"}
{"compound": "CC[C@H](C)[C@H](NC(=O)[C@H](C)NC(=O)[C@@H]1CCCN1C(=O)[C@H](CO)NC(=O)CNC(=O)[C@H](CCCCN)NC(=O)[C@H](Cc1c[nH]c2ccccc12)NC(=O)CNC(=O)[C@H](CCC(N)=O)NC(=O)[C@@H]1CCCN1C(=O)[C@H](CC(C)C)NC(=O)[C@@H](NC(=O)[C@@H](N)CC(N)=O)C(C)C)C(=O)N[C@@H](Cc1ccccc1)C(=O)O [HRT7-2]", "val": "− (0%-1.4% (−))"}
{"compound": "CC[C@H](C)[C@H](NC(=O)[C@H](CCCCN)NC(=O)[C@@H](NC(=O)[C@@H](NC(=O)[C@H](CCCCN)NC(=O)[C@H](Cc1ccc(O)cc1)NC(=O)[C@H](CCCCN)NC(=O)[C@H](Cc1ccc(O)cc1)NC(=O)[C@H](CC(C)C)NC(=O)[C@H](CCC(=O)O)NC(=O)[C@H](CO)NC(=O)[C@H](CCCNC(=N)N)NC(=O)[C@H](Cc1c[nH]c2ccccc12)NC(=O)[C@H](CC(N)=O)NC(=O)[C@@H](N)CC(=O)O)C(C)C)C(C)C)C(=O)O [HSU4] (H-DNWRSELYKYKVVKI-OH; N-terminus and C-terminus assumed)", "val": "+ (12.5%-25% (+))"}

---

Test system: CD8^+ T cells from HIV^+ subjects
Experiment: FACS-based intracellular staining (ICS) for cytolysin (perforin) and cytotoxins (GrzA, GrzB) in CD8+ T cells
Conditions: FIV epitope peptide; HIV+ human subjects
Source text: The overlapping peptide pools of FIV and HIV-1 structural and enzyme proteins were used to stimulate the […] (PBMC) and the T cells from HIV^+ subjects as previously described for epitope mapping of HIV-1 and FIV p24 and reverse transcriptase (RT) (Sanou et al., 2013; Roff et al., 2015). […]
Residues, ends and D or L forms follow the SMILES beside them.
result_type: Cyto: CD8+ T-cell cytotoxins (perforin, GrzA & B), frequency of responders

{"compound": "CSCC[C@H](NC(=O)[C@H](CCCNC(=N)N)NC(=O)[C@H](C)NC(=O)[C@@H]1CCCN1C(=O)[C@H](C)NC(=O)[C@@H](N)Cc1ccccc1)C(=O)N[C@@H](CCC(N)=O)C(=O)N[C@@H](CS)C(=O)N[C@@H](CCCNC(=N)N)C(=O)N[C@@H](C)C(=O)N[C@@H](Cc1c[nH]c2ccccc12)C(=O)N[C@@H](Cc1ccc(O)cc1)C(=O)N[C@@H](CC(C)C)C(=O)N[C@@H](CCC(=O)O)C(=O)N[C@@H](C)C(=O)O [Fp9-3] (H-FAPARMQCRAWYLEA-OH)", "val": "+++ (41%-54% (+++))"}
{"compound": "CC[C@H](C)[C@H](N)C(=O)N[C@@H](CC(=O)O)C(=O)N[C@@H](Cc1ccccc1)C(=O)N[C@@H](CCCNC(=N)N)C(=O)N[C@H](C(=O)N[C@@H](CC(C)C)C(=O)N[C@@H](CC(N)=O)C(=O)N[C@@H](CCCCN)C(=O)N[C@@H](CC(C)C)C(=O)N[C@H](C(=O)N[C@@H](CC(=O)O)C(=O)N[C@@H](CCCCN)C(=O)NCC(=O)N[C@@H](C)C(=O)O)[C@@H](C)O)C(C)C [FRT3-5] (H-IDFRVLNKLTDKGA-OH; N-terminus and C-terminus assumed)", "val": "+++ (41%-54% (+++))"}
{"compound": "CC[C@H](C)[C@H](NC(=O)[C@H](CC(C)C)NC(=O)[C@@H]1CCCN1C(=O)[C@H](CO)NC(=O)[C@H](CC(C)C)NC(=O)[C@@H](NC(=O)[C@H](Cc1c[nH]c2ccccc12)NC(=O)CNC(=O)[C@H](CCC(N)=O)NC(=O)[C@@H]1CCCN1C(=O)[C@H](CC(C)C)NC(=O)[C@H](CO)NC(=O)[C@@H](N)CS)C(C)C)C(=O)N[C@@H](Cc1ccc(O)cc1)C(=O)O [FRT7-2] (H-CSLPQGWVLSPLIY-OH)", "val": "++++ (>54% (++++))"}
{"compound": "CC[C@H](C)[C@H](NC(=O)[C@H](CO)NC(=O)[C@H](CC(C)C)NC(=O)[C@H](CO)NC(=O)[C@H](CCC(N)=O)NC(=O)[C@H](CCCCN)NC(=O)[C@H](CC(C)C)NC(=O)[C@H](Cc1ccc(O)cc1)NC(=O)[C@H](CC(C)C)NC(=O)[C@H](CCCCN)NC(=O)[C@@H](NC(=O)[C@H](CCC(=O)O)NC(=O)[C@H](C)N)C(C)C)C(=O)N[C@@H](C)C(=O)O [Fp14-3] (H-AEVKLYLKQSLSIA-OH; N-terminus and C-terminus assumed)", "val": "++++ (>54% (++++))"}

---

test system: CD8^+ T cells from HIV^+ subjects; assay: FACS-based intracellular staining (ICS) for cytolysin (perforin) and cytotoxins (GrzA, GrzB) in CD8+ T cells; conditions: HIV-1 epitope peptide; HIV+ human subjects; threshold ≥0.2%
Residues, ends and D or L forms follow the SMILES beside them.
result_type: CyCD8: CD8+ T-cell cytolysin/cytotoxins (perforin, GrzA & B), frequency of responders

{"compound": "CSCC[C@H](NC(=O)[C@H](Cc1c[nH]c2ccccc12)NC(=O)[C@H](CC(N)=O)NC(=O)[C@H](CCCCN)NC(=O)[C@@H](NC(=O)[C@H](CCC(=O)O)NC(=O)[C@H](CCC(N)=O)NC(=O)[C@H](CO)NC(=O)[C@H](C)N)C(C)C)C(=O)N[C@H](C(=O)N[C@@H](CCC(=O)O)C(=O)N[C@H](C(=O)N[C@@H](CC(C)C)C(=O)N[C@@H](CC(C)C)C(=O)N[C@H](C(=O)O)C(C)C)[C@@H](C)O)[C@@H](C)O [Hp14-3 (15-2)] (H-ASQEVKNWMTETLLV-OH)", "val": "++++ (>54% (++++))"}
{"compound": "CC(C)C[C@H](NC(=O)[C@H](CCC(=O)O)NC(=O)[C@H](CCCNC(=N)N)NC(=O)[C@H](Cc1ccccc1)NC(=O)[C@H](CC(=O)O)NC(=O)[C@@H](NC(=O)[C@H](CC(C)C)NC(=O)[C@H](CCCCN)NC(=O)[C@H](CCCNC(=N)N)NC(=O)[C@@H](N)Cc1c[nH]c2ccccc12)C(C)C)C(=O)N[C@@H](CC(N)=O)C(=O)N[C@@H](CCCCN)C(=O)N[C@@H](CCCNC(=N)N)C(=O)O [HRT3-4]", "val": "++++ (>54% (++++))"}
